Quick reference for IC50 among some molecules
- assayed-system: human metabotropic glutamate 7 receptor (hmGlu7) (Homo sapiens)
- protocol-text: mGlu7 assay on HEK-expressing human mGlu7: fluorescent cell based-Ca2+ mobilization assay (FLIPR), inhibition of EC80 L-AP4 response
- condition-details: HEK-293 cells expressing hmGlu7, EC80 L-AP4; mean of at least three independent experiments in duplicate; read-out: Ca^2+ Flux (mean IC50)
- Protocol: mGlu7 Assay on HEK-Expressing Human mGLU7 […] After 10 s of basal fluorescence recording, various concentrations of the compounds of the invention were added to the cells. Changes in fluorescence levels were first monitored for 180 s in order to detect any agonist activity of the compounds. […]

Solved entries:
>  <molecule>
COc1cccc(-c2c(Br)c3cnn(-c4ccccn4)c(=O)n3c2C)c1F

>  <obs-value>
100 to 1000 nM

$$$$
>  <molecule>
COc1ccc(-c2c(C)c3cnn(-c4ncccn4)c(=O)n3c2C)cc1

>  <obs-value>
100 to 1000 nM

$$$$

Name the reported IC50 value associated with the molecule "Cc1c(-c2cccc(N3CCC3)c2)c(C)n2c(=O)n(-c3ccc(F)cn3)ncc12" < 100 nM

###

- assayed-system: human metabotropic glutamate 7 receptor (hmGlu7) (Homo sapiens, UniProt Q14831)
- Sequence (Q14831 35-922 isoform Q14831-2 limits assumed): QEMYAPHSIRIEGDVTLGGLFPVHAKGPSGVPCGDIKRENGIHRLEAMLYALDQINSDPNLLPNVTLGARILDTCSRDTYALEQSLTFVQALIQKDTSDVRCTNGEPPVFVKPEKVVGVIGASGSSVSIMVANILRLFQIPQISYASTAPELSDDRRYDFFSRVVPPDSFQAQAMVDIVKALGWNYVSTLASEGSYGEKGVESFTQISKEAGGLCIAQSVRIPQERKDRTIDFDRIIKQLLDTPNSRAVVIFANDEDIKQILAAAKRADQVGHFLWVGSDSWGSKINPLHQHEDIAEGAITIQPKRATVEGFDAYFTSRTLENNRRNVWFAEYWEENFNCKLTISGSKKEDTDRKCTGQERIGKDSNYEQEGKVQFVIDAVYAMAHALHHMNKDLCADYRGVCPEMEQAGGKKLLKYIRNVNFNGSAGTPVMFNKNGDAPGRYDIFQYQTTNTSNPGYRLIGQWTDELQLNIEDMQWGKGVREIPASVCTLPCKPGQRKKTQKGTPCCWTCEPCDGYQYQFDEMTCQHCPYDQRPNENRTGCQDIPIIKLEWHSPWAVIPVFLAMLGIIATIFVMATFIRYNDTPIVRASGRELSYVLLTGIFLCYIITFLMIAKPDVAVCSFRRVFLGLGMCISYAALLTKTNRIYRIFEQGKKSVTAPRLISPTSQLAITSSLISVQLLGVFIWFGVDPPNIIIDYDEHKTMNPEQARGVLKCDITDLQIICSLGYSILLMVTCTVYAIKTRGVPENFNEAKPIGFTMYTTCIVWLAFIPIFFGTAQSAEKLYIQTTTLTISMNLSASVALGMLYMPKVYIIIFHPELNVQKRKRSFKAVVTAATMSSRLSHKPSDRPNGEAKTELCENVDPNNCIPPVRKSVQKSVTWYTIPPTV
- protocol-text: mGlu7 assay on HEK-expressing human mGlu7: fluorescent cell based-Ca2+ mobilization assay (FLIPR), inhibition of EC80 L-AP4 response
- condition-details: HEK-293 cells expressing hmGlu7, EC80 L-AP4; mean of at least three independent experiments in duplicate; read-out: Ca^2+ Flux (mean IC50)
quantity-kind: IC50

Solved entries:
>  <molecule>
Cc1c(-c2cccc(OC3CCC3)c2)c(C)n2c(=O)n(-c3ncccn3)ncc12

>  <assayed-system>
human metabotropic glutamate 7 receptor (hmGlu7) (Homo sapiens, UniProt Q14831)

>  <IC50>
100 to 1000 nM

$$$$
>  <molecule>
Cc1ccc(N2CCC2)cc1-c1c(C)c2cnn(-c3ccccn3)c(=O)n2c1C

>  <assayed-system>
human metabotropic glutamate 7 receptor (hmGlu7) (Homo sapiens, UniProt Q14831)

>  <IC50>
100 to 1000 nM

$$$$
>  <molecule>
Cc1c(C2=CCCCC2)c(C)n2c(=O)n(-c3ccccn3)ncc12

>  <assayed-system>
human metabotropic glutamate 7 receptor (hmGlu7) (Homo sapiens, UniProt Q14831)

>  <IC50>
1000 to 10000 nM

$$$$
>  <molecule>
Cc1c(-c2cccc(OC3CC3)c2)cc2cnn(-c3ncccn3)c(=O)n12

>  <assayed-system>
human metabotropic glutamate 7 receptor (hmGlu7) (Homo sapiens, UniProt Q14831)

>  <IC50>
< 100 nM

$$$$
>  <molecule>
COc1ccc(-c2cc3cnn(-c4ncccn4)c(=O)n3c2C)cn1

>  <assayed-system>
human metabotropic glutamate 7 receptor (hmGlu7) (Homo sapiens, UniProt Q14831)

>  <IC50>
100 to 1000 nM

$$$$
>  <molecule>
COc1cc(-c2cc3cnn(-c4ncccn4)c(=O)n3c2C)ccc1F

>  <assayed-system>
human metabotropic glutamate 7 receptor (hmGlu7) (Homo sapiens, UniProt Q14831)

>  <IC50>
< 100 nM

$$$$

Name the reported IC50 value associated with the compound "COc1ccc(-c2c(C)c3cnn(-c4ncccn4)c(=O)n3c2C)c(C)n1" 100 to 1000 nM

Name the reported IC50 value associated with the compound "Cc1c(-c2cccc3c2CCN3C2CC2)cc2cnn(-c3ncccn3)c(=O)n12" 100 to 1000 nM

Name the reported IC50 value associated with the compound "COc1nccc(-c2c(C)c3cnn(-c4ncccn4)c(=O)n3c2C)c1F" 100 to 1000 nM
